Source listed as ChEMBL document CHEMBL1806488.

In this section we review reported EC50 values for a set of compounds.
Test system: Human alphaherpesvirus 3
assay-procedure: Antiviral activity against Varicella-zoster virus YS expressing thymidine kinase infected in human HEL cells assessed as reduction in the virus plaque formation
Type: functional, organism-based
measurement-setup: Human alphaherpesvirus 3, YS

| compound | qualifying-sign | EC50 (µM) |
| --- | --- | --- |
| O=c1[nH]c(=O)n([C@@H]2O[C@H](CO)[C@@H](O)C2(F)F)cc1I | = | 13 |
| Cc1cn([C@@H]2O[C@H](CO)[C@@H](O)C2(F)F)c(=O)[nH]c1=O | = | 10 |
| COC(=O)[C@H](C)NP(=O)(OC[C@H]1O[C@@H](n2cc(I)c(=O)[nH]c2=O)C(F)(F)[C@@H]1O)Oc1cccc2ccccc12 (stereo not given in full) | = | 29 |
| O=c1[nH]c(=O)n([C@@H]2O[C@H](CO)[C@@H](O)C2(F)F)cc1Cl | > | 50 |
| O=c1[nH]c(=O)n([C@@H]2O[C@H](CO)[C@@H](O)C2(F)F)cc1Br | = | 23 |

---

target: Thymidine kinase (Feline herpesvirus 1, UniProt P13159)
Sequence (P13159 whole entry): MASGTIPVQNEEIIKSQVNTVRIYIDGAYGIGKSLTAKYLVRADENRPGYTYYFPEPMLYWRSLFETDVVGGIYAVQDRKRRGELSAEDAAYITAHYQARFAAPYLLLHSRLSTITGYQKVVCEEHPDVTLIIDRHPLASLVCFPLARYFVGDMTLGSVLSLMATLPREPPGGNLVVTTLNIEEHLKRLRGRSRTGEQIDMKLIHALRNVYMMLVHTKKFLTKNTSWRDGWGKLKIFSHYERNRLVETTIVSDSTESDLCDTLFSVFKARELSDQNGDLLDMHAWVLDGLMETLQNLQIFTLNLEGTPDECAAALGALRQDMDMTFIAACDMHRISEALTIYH
assay-procedure: Inhibition of Feline herpesvirus thymidine kinase assessed as phosphorylation of 1 uM [methyl-3H]dThd after 30 mins by scintillation counting
Design: species or system Felid alphaherpesvirus 1
pIC50: −log10 of the molar value.

| compound | pIC50 |
| --- | --- |
| Cc1cn([C@@H]2O[C@H](CO)[C@@H](O)C2(F)F)c(=O)[nH]c1=O | 4.07 |
| O=c1[nH]c(=O)n([C@@H]2O[C@H](CO)[C@@H](O)C2(F)F)cc1Cl | 4.03 |
| O=c1[nH]c(=O)n([C@@H]2O[C@H](CO)[C@@H](O)C2(F)F)cc1Br | 4.47 |
| O=c1[nH]c(=O)n([C@@H]2O[C@H](CO)[C@@H](O)C2(F)F)cc1I | 4.42 |

---

Test system: Human alphaherpesvirus 1
assay-procedure: Antiviral activity against acyclovir-resistant TK-deficient Herpes simplex virus-1 KOS infected in human HEL cells assessed as inhibition of virus-induced cytopathic effect after 4 days by microscopic analysis
Assay type: functional, organism-based
measurement-setup: Human alphaherpesvirus 1, KOS, 96 h
pEC50: −log10 of the molar value.
observable: pEC50

| compound | measured-result |
| --- | --- |
| O=c1[nH]c(=O)n([C@@H]2O[C@H](CO)[C@@H](O)C2(F)F)cc1I | 4.70 |
| Cc1cn([C@@H]2O[C@H](CO)[C@@H](O)C2(F)F)c(=O)[nH]c1=O | 4.70 |
| C[C@H](NP(=O)(OC[C@H]1O[C@@H](n2cc(Br)c(=O)[nH]c2=O)C(F)(F)[C@@H]1O)Oc1ccccc1)C(=O)OCc1ccccc1 (some centres not stated) | < 4.00 |
| COC(=O)[C@H](C)NP(=O)(OC[C@H]1O[C@@H](n2cc(I)c(=O)[nH]c2=O)C(F)(F)[C@@H]1O)Oc1ccccc1 (some centres not stated) | < 4.00 |
| C[C@H](NP(=O)(OC[C@H]1O[C@@H](n2cc(Cl)c(=O)[nH]c2=O)C(F)(F)[C@@H]1O)Oc1ccccc1)C(=O)OCc1ccccc1 (some centres not stated) | < 4.00 |
| C[C@H](NP(=O)(OC[C@H]1O[C@@H](n2cc(I)c(=O)[nH]c2=O)C(F)(F)[C@@H]1O)Oc1cccc2ccccc12)C(=O)OCc1ccccc1 (some centres not stated) | < 4.70 |
| COC(=O)[C@H](C)NP(=O)(OC[C@H]1O[C@@H](n2cc(I)c(=O)[nH]c2=O)C(F)(F)[C@@H]1O)Oc1cccc2ccccc12 (some centres not stated) | < 4.00 |

---

Test system: Human alphaherpesvirus 3
assay-procedure: Antiviral activity against thymidine kinase-deficient Varicella-zoster virus 07-1 infected in human HEL cells assessed as reduction in the virus plaque formation
Assay type: functional, organism-based
measurement-setup: Human alphaherpesvirus 3, 07-1, HEL
observable: EC50

| compound | target | observable | measured-result |
| --- | --- | --- | --- |
| O=c1[nH]c(=O)n([C@@H]2O[C@H](CO)[C@@H](O)C2(F)F)cc1I | Human alphaherpesvirus 3 | EC50 | > 50 µM |
| COC(=O)[C@H](C)NP(=O)(OC[C@H]1O[C@@H](n2cc(I)c(=O)[nH]c2=O)C(F)(F)[C@@H]1O)Oc1cccc2ccccc12 (stereo not given in full) | Human alphaherpesvirus 3 | EC50 | > 50 µM |
| COC(=O)[C@H](C)NP(=O)(OC[C@H]1O[C@@H](n2cc(I)c(=O)[nH]c2=O)C(F)(F)[C@@H]1O)Oc1ccccc1 (stereo not given in full) | Human alphaherpesvirus 3 | EC50 | > 50 µM |
| O=c1[nH]c(=O)n([C@@H]2O[C@H](CO)[C@@H](O)C2(F)F)cc1Cl | Human alphaherpesvirus 3 | EC50 | > 50 µM |
| C[C@H](NP(=O)(OC[C@H]1O[C@@H](n2cc(Cl)c(=O)[nH]c2=O)C(F)(F)[C@@H]1O)Oc1ccccc1)C(=O)OCc1ccccc1 (stereo not given in full) | Human alphaherpesvirus 3 | EC50 | > 50 µM |
| C[C@H](NP(=O)(OC[C@H]1O[C@@H](n2cc(Br)c(=O)[nH]c2=O)C(F)(F)[C@@H]1O)Oc1ccccc1)C(=O)OCc1ccccc1 (stereo not given in full) | Human alphaherpesvirus 3 | EC50 | > 50 µM |
| C[C@H](NP(=O)(OC[C@H]1O[C@@H](n2cc(I)c(=O)[nH]c2=O)C(F)(F)[C@@H]1O)Oc1cccc2ccccc12)C(=O)OCc1ccccc1 (stereo not given in full) | Human alphaherpesvirus 3 | EC50 | 37 µM |
| O=c1[nH]c(=O)n([C@H]2C[C@H](O)[C@@H](CO)O2)cc1/C=C/Br [BRIVUDINE] | Human alphaherpesvirus 3 | EC50 | ≥ 60 µM |
| Cc1cn([C@@H]2O[C@H](CO)[C@@H](O)C2(F)F)c(=O)[nH]c1=O | Human alphaherpesvirus 3 | EC50 | > 50 µM |
| O=c1[nH]c(=O)n([C@@H]2O[C@H](CO)[C@@H](O)C2(F)F)cc1Br | Human alphaherpesvirus 3 | EC50 | > 50 µM |

---

Tested on: Human alphaherpesvirus 1
assay-procedure: Antiviral activity against acyclovir-resistant TK-deficient Herpes simplex virus-1 KOS infected in human HEL cells assessed as inhibition of virus-induced cytopathic effect after 4 days by microscopic analysis
Assay type: functional, organism-based
measurement-setup: Human alphaherpesvirus 1, KOS, 96 h
In this section we review reported EC50 values for a set of compounds.

| compound | qualifying-sign | EC50 / µM |
| --- | --- | --- |
| O=c1[nH]c(=O)n([C@@H]2O[C@H](CO)[C@@H](O)C2(F)F)cc1Br | = | 73 |
| O=c1[nH]c(=O)n([C@@H]2O[C@H](CO)[C@@H](O)C2(F)F)cc1Cl | = | 78 |
| C[C@H](NP(=O)(OC[C@H]1O[C@@H](n2cc(I)c(=O)[nH]c2=O)C(F)(F)[C@@H]1O)Oc1ccccc1)C(=O)OCc1ccccc1 (stereo partly drawn) | ≥ | 100 |

---

System: FM3A
assay-procedure: Antiproliferation activity against mouse FM3A cells after 2 days by coulter counter
Type: cell-based
measurement-setup: 48 h
pIC50: −log10 of the molar value.

| molecule | target | qualifying-sign | pIC50 |
| --- | --- | --- | --- |
| C[C@H](NP(=O)(OC[C@H]1O[C@@H](n2cc(Br)c(=O)[nH]c2=O)C(F)(F)[C@@H]1O)Oc1ccccc1)C(=O)OCc1ccccc1 (stereo partly drawn) | FM3A | = | 4.04 |
| O=c1[nH]c(=O)n([C@@H]2O[C@H](CO)[C@@H](O)C2(F)F)cc1I | FM3A | = | 3.39 |
| C[C@H](NP(=O)(OC[C@H]1O[C@@H](n2cc(Cl)c(=O)[nH]c2=O)C(F)(F)[C@@H]1O)Oc1ccccc1)C(=O)OCc1ccccc1 (stereo partly drawn) | FM3A | = | 3.65 |
| COC(=O)[C@H](C)NP(=O)(OC[C@H]1O[C@@H](n2cc(I)c(=O)[nH]c2=O)C(F)(F)[C@@H]1O)Oc1ccccc1 (stereo partly drawn) | FM3A | = | 3.59 |
| COC(=O)[C@H](C)NP(=O)(OC[C@H]1O[C@@H](n2cc(I)c(=O)[nH]c2=O)C(F)(F)[C@@H]1O)Oc1cccc2ccccc12 (stereo partly drawn) | FM3A | = | 4.34 |
| O=c1[nH]c(=O)n([C@@H]2O[C@H](CO)[C@@H](O)C2(F)F)cc1Br | FM3A | < | 3.30 |
| O=c1[nH]c(=O)n([C@@H]2O[C@H](CO)[C@@H](O)C2(F)F)cc1Cl | FM3A | < | 3.30 |
| Cc1cn([C@@H]2O[C@H](CO)[C@@H](O)C2(F)F)c(=O)[nH]c1=O | FM3A | < | 3.30 |
